- target_desc: AHR (Homo sapiens)
- Construct: U87 MG glioblastoma cells (ATCC #HTB-14) endogenously expressing AHR; endogenous in cells; host or cells: U87 MG glioblastoma cells (ATCC #HTB-14)
- test_details: In vitro assay 1: antagonism in human cell line (AHR transactivation, firefly luciferase reporter, kynurenic acid prestimulated)
- Type: cell-based
- setup_conditions: AHR Antagonism Human IC50 [M]
value_kind: IC50 (M)

// below: answered molecules
[
  {
    "input_smiles": "N#Cc1cccc2c1nc(N[C@@H]1CCCCNC1=O)n1nc(-c3cn[nH]c3)nc21",
    "value_kind": "IC50",
    "reported_result": "7.79e-07"
  },
  {
    "input_smiles": "CN(C)c1cccc(-c2nc3c4ccccc4nc(N[C@@H]4CCCCNC4=O)n3n2)c1",
    "value_kind": "IC50",
    "reported_result": "2.92e-09"
  },
  {
    "input_smiles": "O=C1NCCCC[C@H]1Nc1nc2cccc(C3CC3)c2c2nc(-c3cccc(F)c3)nn12",
    "value_kind": "IC50",
    "reported_result": "3.24e-08"
  },
  {
    "input_smiles": "COc1ccc(-c2nc3c4cc(F)ccc4nc(N[C@@H]4CCCCNC4=O)n3n2)cc1",
    "value_kind": "IC50",
    "reported_result": "8.14e-10"
  }
]

P: O=C1NCCCC[C@H]1Nc1nc2cccc(C(F)(F)F)c2c2nc(-c3cccc(F)c3)nn12
Q: Cn1cc(-c2nc3c4cc(Br)cc(Br)c4nc(N[C@@H]4CCCCNC4=O)n3n2)cn1
R: CN(C)c1ccc(-c2nc3c4ccccc4nc(N[C@@H]4CCCCNC4=O)n3n2)cc1
Lookup: Arrange by IC50, high to low. Please, when replying, give the labels in the order that was requested.
Found: Q, P, R
(Q: 5.01e-07 M, P: 6.2e-08 M, R: 1.5e-09 M)

----------
- target_desc: AHR (Homo sapiens, UniProt P35869)
- Construct: U87 MG glioblastoma cells (ATCC #HTB-14) endogenously expressing AHR; endogenous in cells; host or cells: U87 MG glioblastoma cells (ATCC #HTB-14)
- Sequence (P35869 11-848): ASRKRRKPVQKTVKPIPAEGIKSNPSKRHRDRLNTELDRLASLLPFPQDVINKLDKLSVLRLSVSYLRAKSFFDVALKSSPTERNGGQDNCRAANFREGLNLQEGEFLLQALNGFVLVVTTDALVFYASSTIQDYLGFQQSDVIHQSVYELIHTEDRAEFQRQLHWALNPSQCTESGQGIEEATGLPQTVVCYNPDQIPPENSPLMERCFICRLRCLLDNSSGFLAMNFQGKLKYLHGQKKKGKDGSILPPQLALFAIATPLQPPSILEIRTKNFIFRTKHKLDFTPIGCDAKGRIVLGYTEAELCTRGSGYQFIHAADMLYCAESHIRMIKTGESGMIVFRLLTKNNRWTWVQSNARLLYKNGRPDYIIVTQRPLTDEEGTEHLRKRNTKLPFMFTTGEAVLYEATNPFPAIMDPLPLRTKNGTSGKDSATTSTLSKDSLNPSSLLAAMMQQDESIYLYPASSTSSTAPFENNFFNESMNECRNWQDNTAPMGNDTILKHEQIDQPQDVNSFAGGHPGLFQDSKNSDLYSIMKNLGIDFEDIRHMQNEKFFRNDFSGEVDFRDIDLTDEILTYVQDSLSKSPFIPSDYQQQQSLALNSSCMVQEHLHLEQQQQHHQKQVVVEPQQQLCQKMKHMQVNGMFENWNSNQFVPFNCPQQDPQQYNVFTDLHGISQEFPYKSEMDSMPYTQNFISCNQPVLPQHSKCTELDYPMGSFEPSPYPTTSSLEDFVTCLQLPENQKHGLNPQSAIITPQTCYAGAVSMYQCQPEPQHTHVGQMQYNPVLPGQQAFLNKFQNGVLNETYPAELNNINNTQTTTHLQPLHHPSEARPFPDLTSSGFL
- test_details: In vitro assay 1: antagonism in human cell line (AHR transactivation, firefly luciferase reporter, kynurenic acid prestimulated)
- Format: cell-based
- setup_conditions: AHR Antagonism Human IC50 [M]
value_kind: IC50 (M)

// below: answered molecules
[
  {
    "molecule": "O=C1NCCCC[C@H]1Nc1nc2ccccc2c2nc(-c3cn[nH]c3)nn12 [Example 69]",
    "reported_result": "3.59e-07"
  },
  {
    "molecule": "Cc1c(-c2nc3c4cccc(C(F)(F)F)c4nc(N[C@@H]4CCCCNC4=O)n3n2)cnn1C [Example 734]",
    "reported_result": "3.94e-09"
  },
  {
    "molecule": "O=C1NCCCC[C@H]1Nc1nc2ccccc2c2nc(-c3cc(F)ccc3F)nn12 [Example 197]",
    "reported_result": "4.23e-09"
  },
  {
    "molecule": "Cn1cc(-c2nc3c4c(F)cccc4nc(N[C@@H]4CCCCNC4=O)n3n2)cn1 [Example 244]",
    "reported_result": "2.17e-08"
  },
  {
    "molecule": "O=C1NCCCC[C@H]1Nc1nc2ccccc2c2nc(-c3ccc(Br)cc3OC(F)(F)F)nn12 [Example 440]",
    "reported_result": "2.43e-09"
  },
  {
    "molecule": "O=C1NCCCC[C@H]1Nc1nc2ccccc2c2nc(-c3cncc(C(F)(F)F)c3)nn12 [Example 362]",
    "reported_result": "1.91e-08"
  }
]

A: COc1cccc(-c2nc3c4cc(F)ccc4nc(NC4CCCNC4=O)n3n2)c1 (single isomer, unassigned) [Example 189]
B: COc1cccc(-c2nc3c4cc(F)ccc4nc(NC4CCNC4=O)n3n2)c1 (stereo not drawn) [Example 162]
C: COc1ccc(-c2nc3c4c(C5CC5)cccc4nc(N[C@@H]4CCCCNC4=O)n3n2)cc1 [Example 176]
D: CNC(=O)[C@H](C)Nc1nc2ccccc2c2nc(-c3cccc(OC)c3)nn12 [Example 102]
E: N#Cc1ccc(-c2nc3c4cccc(Br)c4nc(N[C@@H]4CNCCNC4=O)n3n2)cc1 [Example 717]
Lookup: Arrange items by their IC50 values in increasing order. Please, when replying, give the labels in the order that was requested.
Found: E, C, B, A, D

1: O=C1NCCCC[C@H]1Nc1nc2ccccc2c2nc(-c3cncnc3)nn12 [Example 642]
2: O=C1NCCCC[C@H]1Nc1nc2c(Br)cc(Br)cc2c2nc(-c3cccc(F)c3)nn12 [Example 592]
Lookup: Would you mind telling me which has the lower recorded IC50 between 1 and 2 ? Give the label of your selection.
Found: 1

P: Cn1cncc1-c1nc2c3ccccc3nc(N[C@@H]3CCCCNC3=O)n2n1 [Example 610]
Q: CC[C@H](Nc1nc2ccccc2c2nc(-c3ccc(Br)cc3OC(F)(F)F)nn12)C(N)=O [Example 524]
Lookup: Field: entry with larger IC50 (options P / Q ). Give the label of your selection.
Found: P
